All figures here come from paper PMC10488193.

method_summary: Storage stability in solutions and hornbeam bark extracts (UHPLC-DAD)
Format: physicochemical
measurement_parameters: 23 weeks, 22 °C, SA (aqueous solution)
Experimental: For the analysis of the samples from the chemical stability as well as the PAMPA studies, sample concentrations were determined using our previously developed ultrahigh-performance liquid chromatography–diode array detection (UHPLC-DAD) method validated for linearity, precision and accuracy. […] The effects of the temperature and the medium (i.e., solvent and accompanying substances) were analysed through one-way analysis of variance (ANOVA) followed by Tukey’s post hoc HSD test (p < 0.05). […]
Marks after values point to notes of the source that are not given here.
property_label: concentration as compared to the initial value

compound	assay_value
O=C1CCC(=O)C(O)Cc2ccc(O)c(c2)-c2cc(ccc2O)C1 (stereo not shown)	100.3 ± 0.6 ^ab %
O=C1CCc2ccc(O)c(c2)-c2cc(ccc2O)C[C@@H](O)[C@H](O)C1	87.6 ± 0.7 ^#ae %
O=C1CCc2ccc(O)c(c2)-c2cc(ccc2O)C[C@H](O)[C@H](O)[C@H]1O	99.8 ± 0.9 ^a %

Kindly consider the entry below.
Write down concentration as compared to the initial value measured for item O=C1C[C@H](O)[C@@H](O)Cc2ccc(O)c(c2)-c2cc(ccc2O)C[C@H]1O
23.0 ± 0.5 ^#h %
